Provenance of the data: PubChem BioAssay AID504444

- ASSAY SUMMARY: Nrf2 qHTS screen for inhibitors; also: nearly all actives have a fitted effect of over 60% in size
- SETUP CONDITIONS: A549 ARE-Fluc reporter, luciferase luminescence, 18-24 h; series mostly up to 46 µM
Screen size: about 360,000 compounds; about 7,500 (2.1%) were called active. Roughly 20% stayed inconclusive and do not appear here. Calls follow the shape of the dose curve; as a rule, active = well fitted inhibition curve with a large enough effect; inconclusive = small, poorly fitted or top-dose-only effect, or effect the other way; inactive = flat fitted curve, though single readings scatter. What follows is part of a selection rich in actives, with near analogues and random picks from the rest.
Write down one outcome, taken from 1 (active), -1 (inactive)

Completed entries (count: 5):
| MOLECULE | DISCRETE LABEL |
| --- | --- |
| NS(=O)(=O)c1ccc(CCNc2nc(C(F)(F)F)nc3ccccc23)cc1 | 1 |
| Cn1nc(-c2ccccc2)c(CO)c1Sc1ccccc1 | 1 |
| Cc1ccc(S(=O)(=O)c2c(COC(=O)c3cccc(Cl)c3)c(-c3ccccc3)nn2C)cc1 | -1 |
| Cn1nc(-c2ccccc2)c(CSc2cccc(Cl)c2)c1Cl | -1 |
| COc1cccc(CNc2nc(C(F)(F)F)nc3ccccc23)c1 | 1 |

Attention now shifts to the item below.
What outcome does the record of this test show for CC(Nc1nc(C(F)(F)F)nc2ccccc12)c1cccs1 (stereo unspecified) ?
-1
